# Test system: BaF3/BCR-ABL T315I
# assay.protocol: Toxicity to transduced BaF3 model tumor cell line
# Type: cell-based, murine
# condition.details: Mus musculus
property.name: pIC50
Answers are plain numbers, as −log10 of the molar value.

The recorded pIC50 for entry CS(=O)(=O)O.Cc1ccc(C(=O)Nc2ccc(CN3CCN(C)CC3)c(C(F)(F)F)c2)cc1C#Cc1nnc2ccccn12 [methanesulfonic acid salt] equals 7.12

----------
# assay.protocol: in vivo
# condition.details: rat, in vivo; intravenous administration, rats
property.name: clearance (mL/min/kg)
Give bare numbers, in mL/min/kg.

According to the records, this compound CS(=O)(=O)O.Cc1ccc(C(=O)Nc2ccc(CN3CCN(C)CC3)c(C(F)(F)F)c2)cc1C#Cc1nnc2ccccn12 [methanesulfonic acid salt] displays clearance of 26.8

----------
# assay.protocol: in vivo
# Set-up: species or system C57BL/6 line mice
# condition.details: mouse; free base 50 mg/kg, single oral, C57BL/6 mice, plasma; read-out: AUC0-24
property.name: AUC(0-t)

So, Cc1ccc(C(=O)Nc2ccc(CN3CCN(C)CC3)c(C(F)(F)F)c2)cc1C#Cc1nnc2ccccn12 [free base] ? Its AUC(0-t) was 10900 ng·h/mL

----------
# assay.protocol: Drug distribution in rat tissues
# Type: in vivo
# condition.details: spleen, read-out: concentration in spleen relative to plasma
property.name: Kp

Per the records, this compound ( CS(=O)(=O)O.Cc1ccc(C(=O)Nc2ccc(CN3CCN(C)CC3)c(C(F)(F)F)c2)cc1C#Cc1nnc2ccccn12 [methanesulfonic acid salt] ) has Kp equal to 45

----------
# assay.protocol: Solubility of the free base in various solvents
# Assay type: physicochemical
# condition.details: organic solvent or mixture, thermodynamic from solid; Isopropanol; 3.6 mg in 0.4 mL; 50 °C
property.name: solubility

Notebook: Cc1ccc(C(=O)Nc2ccc(CN3CCN(C)CC3)c(C(F)(F)F)c2)cc1C#Cc1nnc2ccccn12 [free base] , solubility read as > 800 µg/mL

----------
# assay.protocol: pKa of the base
# Format: physicochemical
property.name: pKa

The molecule Cc1ccc(C(=O)Nc2ccc(CN3CCN(C)CC3)c(C(F)(F)F)c2)cc1C#Cc1nnc2ccccn12 [free base] showed pKa equal to ~6.4

----------
# tested.system: Bcr-Abl (Y253F) (Homo sapiens, UniProt P00519, Y253F, form not given)
# assay.protocol: Bcr-Abl tyrosine kinase enzyme activity
property.name: IC50 (nM)
Answers are plain numbers, in nM.

// sample CS(=O)(=O)O.Cc1ccc(C(=O)Nc2ccc(CN3CCN(C)CC3)c(C(F)(F)F)c2)cc1C#Cc1nnc2ccccn12 [methanesulfonic acid salt] , its IC50 was 4.1

----------
# assay.protocol: Drug distribution in rat tissues
# Type: in vivo
# condition.details: kidneys, read-out: concentration in kidneys relative to plasma
property.name: Kp
Numbers only.

Entry CS(=O)(=O)O.Cc1ccc(C(=O)Nc2ccc(CN3CCN(C)CC3)c(C(F)(F)F)c2)cc1C#Cc1nnc2ccccn12 [methanesulfonic acid salt] — recorded Kp = 34

----------
# assay.protocol: Drug distribution in rat tissues
# Format: in vivo
# condition.details: liver, read-out: concentration in liver relative to plasma
property.name: Kp
Numbers only.

Value of measured Kp for the entry CS(=O)(=O)O.Cc1ccc(C(=O)Nc2ccc(CN3CCN(C)CC3)c(C(F)(F)F)c2)cc1C#Cc1nnc2ccccn12 [methanesulfonic acid salt] : 21

Source listed as patent US11225474B2.
